Where do the numbers come from? From ChEMBL document CHEMBL1138243.

- ASSAY_TARGET: Transthyretin (Homo sapiens, UniProt P02766)
- EXPERIMENTAL_DETAILS: Inhibition of transthyretin amyloidosis assessed as fibril formation pH 4.4 at 100 uM
- Type: functional
MEASURED_PROPERTY: percent fibril formation relative to control (%)

• CC(C)C(=O)NC(c1ccccc1)c1ccc2cccnc2c1O (configuration not stated) = 4.6
• Cc1nc2c(C(=O)NCCC(C)C)cnn2c(O)c1Cc1ccccc1F = -86.7
• O=c1c2ccccc2nc2sc(Nc3ccc(F)cc3F)nn12 = -2.03
• Cc1ccsc1/C=c1\sc2nc(-c3cccs3)nn2c1=O = 77.8
• O=C1/C(=C\c2ccc(-c3ccc(Cl)cc3)o2)SC(=S)N1c1cccc(Cl)c1 = 107
• O=C(Nc1c2c(nn1-c1ccc(F)cc1)C[S+]([O-])C2)c1ccccc1F (configuration not stated) = 104
• Nc1nc(Cl)cc(Oc2ccccc2F)n1 = 52.4
